SYSTEM UNDER TEST: T1, LRRK2(G2019S) (Homo sapiens, UniProt Q5S007, G2019S/M2397T/R50H)
T1 construct: SF tag (FLAG + Twin-Strep); expressed in transfected cells; host or cells: HEK 293T
T1 sequence (Q5S007 whole entry R50H/G2019S/M2397T): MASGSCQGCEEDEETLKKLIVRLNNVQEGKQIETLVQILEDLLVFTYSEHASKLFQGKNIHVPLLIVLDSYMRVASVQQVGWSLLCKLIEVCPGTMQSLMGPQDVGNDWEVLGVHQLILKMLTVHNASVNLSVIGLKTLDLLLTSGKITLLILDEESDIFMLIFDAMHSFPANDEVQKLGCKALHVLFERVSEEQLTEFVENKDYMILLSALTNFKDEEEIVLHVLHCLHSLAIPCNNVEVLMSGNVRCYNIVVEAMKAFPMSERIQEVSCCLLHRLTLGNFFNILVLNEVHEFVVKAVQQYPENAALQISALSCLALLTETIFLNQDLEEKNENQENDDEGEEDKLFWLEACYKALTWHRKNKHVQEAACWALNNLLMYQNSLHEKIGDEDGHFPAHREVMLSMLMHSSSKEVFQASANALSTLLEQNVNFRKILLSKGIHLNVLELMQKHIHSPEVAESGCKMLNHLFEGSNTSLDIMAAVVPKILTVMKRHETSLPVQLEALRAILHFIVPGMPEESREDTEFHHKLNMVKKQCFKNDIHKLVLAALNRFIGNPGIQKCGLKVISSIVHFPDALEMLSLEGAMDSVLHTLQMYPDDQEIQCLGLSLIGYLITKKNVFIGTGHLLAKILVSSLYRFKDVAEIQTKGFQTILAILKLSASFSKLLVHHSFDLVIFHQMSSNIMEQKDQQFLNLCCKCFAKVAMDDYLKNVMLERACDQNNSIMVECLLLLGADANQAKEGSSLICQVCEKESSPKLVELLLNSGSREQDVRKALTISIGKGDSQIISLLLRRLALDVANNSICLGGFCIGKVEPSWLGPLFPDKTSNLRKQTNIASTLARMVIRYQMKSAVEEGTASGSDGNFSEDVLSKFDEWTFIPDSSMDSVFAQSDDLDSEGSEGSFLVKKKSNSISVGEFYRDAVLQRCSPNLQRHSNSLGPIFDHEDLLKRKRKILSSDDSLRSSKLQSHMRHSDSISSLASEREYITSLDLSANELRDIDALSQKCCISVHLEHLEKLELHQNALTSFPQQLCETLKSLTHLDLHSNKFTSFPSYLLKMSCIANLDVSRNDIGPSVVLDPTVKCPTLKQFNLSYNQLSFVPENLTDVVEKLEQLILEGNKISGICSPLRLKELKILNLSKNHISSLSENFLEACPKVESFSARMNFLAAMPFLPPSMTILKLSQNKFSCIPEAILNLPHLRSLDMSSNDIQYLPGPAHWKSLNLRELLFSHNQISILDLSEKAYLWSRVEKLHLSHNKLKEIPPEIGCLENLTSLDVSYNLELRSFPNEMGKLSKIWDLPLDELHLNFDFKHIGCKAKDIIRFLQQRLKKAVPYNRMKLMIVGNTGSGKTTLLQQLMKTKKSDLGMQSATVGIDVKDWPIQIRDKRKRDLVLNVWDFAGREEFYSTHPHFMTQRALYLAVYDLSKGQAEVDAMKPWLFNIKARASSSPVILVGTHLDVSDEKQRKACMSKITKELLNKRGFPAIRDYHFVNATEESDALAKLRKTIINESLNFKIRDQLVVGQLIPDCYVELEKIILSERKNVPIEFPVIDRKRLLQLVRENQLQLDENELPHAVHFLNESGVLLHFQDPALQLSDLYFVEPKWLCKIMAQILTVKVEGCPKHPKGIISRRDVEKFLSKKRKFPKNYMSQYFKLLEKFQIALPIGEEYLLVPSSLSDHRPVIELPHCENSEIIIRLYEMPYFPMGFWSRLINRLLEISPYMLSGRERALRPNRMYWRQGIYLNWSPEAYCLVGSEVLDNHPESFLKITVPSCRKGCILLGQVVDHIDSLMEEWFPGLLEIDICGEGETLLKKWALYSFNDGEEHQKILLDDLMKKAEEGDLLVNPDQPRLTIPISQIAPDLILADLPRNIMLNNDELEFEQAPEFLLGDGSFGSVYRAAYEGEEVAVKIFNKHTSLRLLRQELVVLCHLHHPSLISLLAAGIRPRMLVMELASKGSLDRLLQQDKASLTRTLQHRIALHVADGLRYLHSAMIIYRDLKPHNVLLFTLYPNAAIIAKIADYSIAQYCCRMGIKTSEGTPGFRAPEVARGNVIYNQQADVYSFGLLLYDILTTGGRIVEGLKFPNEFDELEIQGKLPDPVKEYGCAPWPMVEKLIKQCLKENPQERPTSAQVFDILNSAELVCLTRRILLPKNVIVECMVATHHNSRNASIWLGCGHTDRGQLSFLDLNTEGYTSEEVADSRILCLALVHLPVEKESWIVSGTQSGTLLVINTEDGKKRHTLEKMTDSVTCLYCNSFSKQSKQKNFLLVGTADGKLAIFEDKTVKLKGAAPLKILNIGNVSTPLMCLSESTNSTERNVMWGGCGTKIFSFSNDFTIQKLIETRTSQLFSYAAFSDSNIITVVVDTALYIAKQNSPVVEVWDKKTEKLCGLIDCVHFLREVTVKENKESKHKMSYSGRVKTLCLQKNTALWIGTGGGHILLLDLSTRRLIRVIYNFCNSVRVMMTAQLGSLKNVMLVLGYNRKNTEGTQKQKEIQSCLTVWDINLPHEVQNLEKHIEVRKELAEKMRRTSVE
PROCEDURE SUMMARY: In cellulo phospho-Rab / LRRK2 autophosphorylation assay in HEK293T cells
Type: cell-based
Parameters: key: Group 1: group 1: Nbs that inhibit both LRRK2 autophosphorylation and Rab10 phosphorylation in cells; Group 2: group 2: Nbs that inhibit only Rab10 phosphorylation; Group 3: group 3: Nbs that activate LRRK2 kinase activity; Group 4: group 4: Nbs that have no consistent/clear effect on LRRK2 kinase activity
STUDY CONDITIONS: classification by effect on in cellulo LRRK2(G2019S) kinase activity
EXPERIMENTAL ENDPOINT: Functional Group (see FIG. 2d)

Sample answers from the record:
[[record]]
molecule = "Nb40: LRRK2-specific Nanobody, SEQ ID NO: 4 (protein, Nanobody CA14135) VHH: MAQVQLVESGGGLVQPGGSLRLSCVASGTIYAINRMGWYRQAPGKQRELVALITLGGGTNYGDSVKGRFTISRDNAKNTGYLQMNSLKPEDTAVYYCKVESSGYTDVFWGQGTQVTVSS"
value = "Group 2"

[[record]]
molecule = "Nb6: LRRK2-specific Nanobody, SEQ ID NO: 2 (protein, Nanobody CA12618) VHH: MAQVQLVESGGGLVQAGGSLRLSCAASGSIFSPTAMGWYRQAPGKERELVAGITSGGYTNYRNFARGRFTISRDNAKKTVYLQMNSLNPEDTAVYYCNTLTISWSWGQGTQVTVSS"
value = "Group 1"

[[record]]
molecule = "Nb23: LRRK2-specific Nanobody, SEQ ID NO: 3 (protein, Nanobody CA13612) VHH: MAQVQLVESGGGLVQAGGSLRLSCAASGRTFSRYTMGWFRQAPGKDREFVARITTSGAVTTYADSAKGRFTISRDNAKNTVYLQMNTLKPEDTAVYYCAAGQGQLSSQSRFVDYWGQGTQVTVSS"
value = "Group 1"

[[record]]
molecule = "Nb1: LRRK2-specific Nanobody, SEQ ID NO: 1 (protein, Nanobody CA12610) VHH: MAQVQLVESGGGLVQAGGSLRLSCVASGRIFSGNAMGWYRQAPGRQRELVAGITNGGYTNYRQFVKGRFTISRDNAKRTVYLQMNSLKPEDTAVYYCNALDREARQVDYWGQGTQVTVSS"
value = "Group 1"


Lookup: Return reported Functional Group (see FIG. 2d); argument: Nb42: LRRK2-specific Nanobody, SEQ ID NO: 6 (protein, Nanobody CA14259) VHH: MAQVQLVESGGGLVQAGGSLRLSCAASGDVNYAVGWFRQAPRKEREFVAAINWRGDNTDYTDSVKGRFTISRDNAKNTVYLQMNSLKPEDTAVYYCAAKSAPYWYSDIAPDYWGQGTQVTVSS
Found: Group 1

Lookup: Return reported Functional Group (see FIG. 2d); argument: Nb36: LRRK2-specific Nanobody, SEQ ID NO: 7 (protein, Nanobody CA14130) VHH: MAQVQLVESGGGLVQPGGSLRLSCAASGSIRSITTSAWFRQPPGKQRELVAGISSGTSTNYADSVKGRFTISRDNAKNTVYLQMNSLKPEDTAVYYCHVWISGTWYSGQGTQVTVSS
Found: Group 2

Lookup: Return reported Functional Group (see FIG. 2d); argument: Nb17: LRRK2-specific Nanobody, SEQ ID NO: 5 (protein, Nanobody CA13606) VHH: MAQVQLVESGGGLVQPGGSLRLSCAASGSNIGYMAWYRQAPGSQRELVARIASGGSANYADSVKGRFTISRDNVKNTVYLHMNSLKPVDTAVYYCHADAWYNSRWSDYWGQGTQVTVSS
Found: Group 2

Lookup: Return reported Functional Group (see FIG. 2d); argument: Nb38: LRRK2-specific Nanobody, SEQ ID NO: 8 (protein, Nanobody CA14133) VHH: MAQVQLVESGGGLVQPGGSLRLSCAASGSIRSIATSAWYRQPPGKQRELVAGISSGTTTNYADSVKGRFTISRDNAKNTVYLQMNSLKPEDTAVYYCHAWISGTWISGQGTQVTVSS
Found: Group 2
